assay: Partition coefficient, log P of the compound; format: physicochemical; settings: octanol/water; read-out: LogP
# maps each entry to its logP

STRUCTURE	logP
CC(=O)O[C@H]1[C@H](OC(=O)c2cccnc2)[C@@]2(C)[C@@H](OC(=O)c3ccccc3)[C@@H](OC(=O)c3ccccc3)[C@@H]3C[C@]2(OC3(C)C)[C@](C)(O)[C@H]1OC(C)=O	7.5
CC(=O)OC[C@]12[C@@H](OC(=O)c3ccccc3)C[C@@H]3[C@@H](OC(=O)c4ccccc4)[C@]1(OC3(C)C)[C@](C)(O)C[C@H](OC(C)=O)[C@@H]2OC(C)=O	7.3
CC(=O)OC[C@]12[C@H](OC(C)=O)C(=O)[C@@H]3[C@@H](OC(C)=O)[C@]1(OC3(C)C)[C@](C)(O)[C@@H](OC(C)=O)[C@H](OC(C)=O)[C@@H]2OC(=O)c1ccccc1	6
CC(=O)O[C@@H]1C[C@@](C)(O)[C@@]23C[C@@H](C[C@H](OC(=O)c4ccccc4)[C@]2(C)[C@H]1OC(=O)c1ccccc1)C(C)(C)O3	6.6
CC(=O)OC[C@]12[C@H](OC(=O)c3ccccc3)C(=O)[C@@H]3[C@@H](OC(C)=O)[C@]1(OC3(C)C)[C@H](C)C[C@H](OC(C)=O)[C@@H]2OC(C)=O	6.1

----------
experiment: Partition coefficient, log P of the compound; assay type: physicochemical; settings: octanol/water; read-out: LogP
Examples of molecules with documented logP follow.

STRUCTURE	logP
CC(=O)O[C@H]1[C@H](OC(=O)c2ccccc2)[C@@]2(C)[C@@H](OC(=O)/C=C/c3ccccc3)C[C@@H]3[C@@H](OC(C)=O)[C@]2(OC3(C)C)[C@](C)(O)[C@H]1OC(=O)c1cccnc1	8
CC(=O)OC[C@]12[C@H](OC(C)=O)C(=O)[C@@H]3[C@@H](OC(C)=O)[C@]1(OC3(C)C)[C@H](C)C[C@H](OC(C)=O)[C@@H]2OC(C)=O	4
CC(=O)O[C@H]1C[C@@](C)(O)[C@]23OC(C)(C)[C@H]([C@H](OC(=O)c4ccccc4)[C@H](OC(=O)c4ccccc4)[C@]2(CO)[C@H]1OC(C)=O)[C@H]3OC(C)=O	6.9
CC(=O)O[C@H]1C[C@@](C)(O)[C@]23OC(C)(C)[C@H](C[C@H](OC(=O)c4ccco4)[C@]2(C)[C@H]1OC(C)=O)[C@H]3OC(C)=O	3.8
CC(=O)OC[C@]12[C@@H](OC(=O)c3ccccc3)C[C@@H]3[C@@H](OC(C)=O)[C@]1(OC3(C)C)[C@H](C)C[C@H](OC(C)=O)[C@@H]2OC(C)=O	5.7

----------
biological target: P-gp (ABCB1) (Homo sapiens, UniProt P08183); assay: Inhibition of human Pgp-mediated DNR transport in NIH3T3 cells by microplate assay; format: cell-based, Mus musculus; details: mouse, NIH3T3 cells expressing human P-gp, probe DNR; read-out: Imax
Sequence (P08183 whole entry): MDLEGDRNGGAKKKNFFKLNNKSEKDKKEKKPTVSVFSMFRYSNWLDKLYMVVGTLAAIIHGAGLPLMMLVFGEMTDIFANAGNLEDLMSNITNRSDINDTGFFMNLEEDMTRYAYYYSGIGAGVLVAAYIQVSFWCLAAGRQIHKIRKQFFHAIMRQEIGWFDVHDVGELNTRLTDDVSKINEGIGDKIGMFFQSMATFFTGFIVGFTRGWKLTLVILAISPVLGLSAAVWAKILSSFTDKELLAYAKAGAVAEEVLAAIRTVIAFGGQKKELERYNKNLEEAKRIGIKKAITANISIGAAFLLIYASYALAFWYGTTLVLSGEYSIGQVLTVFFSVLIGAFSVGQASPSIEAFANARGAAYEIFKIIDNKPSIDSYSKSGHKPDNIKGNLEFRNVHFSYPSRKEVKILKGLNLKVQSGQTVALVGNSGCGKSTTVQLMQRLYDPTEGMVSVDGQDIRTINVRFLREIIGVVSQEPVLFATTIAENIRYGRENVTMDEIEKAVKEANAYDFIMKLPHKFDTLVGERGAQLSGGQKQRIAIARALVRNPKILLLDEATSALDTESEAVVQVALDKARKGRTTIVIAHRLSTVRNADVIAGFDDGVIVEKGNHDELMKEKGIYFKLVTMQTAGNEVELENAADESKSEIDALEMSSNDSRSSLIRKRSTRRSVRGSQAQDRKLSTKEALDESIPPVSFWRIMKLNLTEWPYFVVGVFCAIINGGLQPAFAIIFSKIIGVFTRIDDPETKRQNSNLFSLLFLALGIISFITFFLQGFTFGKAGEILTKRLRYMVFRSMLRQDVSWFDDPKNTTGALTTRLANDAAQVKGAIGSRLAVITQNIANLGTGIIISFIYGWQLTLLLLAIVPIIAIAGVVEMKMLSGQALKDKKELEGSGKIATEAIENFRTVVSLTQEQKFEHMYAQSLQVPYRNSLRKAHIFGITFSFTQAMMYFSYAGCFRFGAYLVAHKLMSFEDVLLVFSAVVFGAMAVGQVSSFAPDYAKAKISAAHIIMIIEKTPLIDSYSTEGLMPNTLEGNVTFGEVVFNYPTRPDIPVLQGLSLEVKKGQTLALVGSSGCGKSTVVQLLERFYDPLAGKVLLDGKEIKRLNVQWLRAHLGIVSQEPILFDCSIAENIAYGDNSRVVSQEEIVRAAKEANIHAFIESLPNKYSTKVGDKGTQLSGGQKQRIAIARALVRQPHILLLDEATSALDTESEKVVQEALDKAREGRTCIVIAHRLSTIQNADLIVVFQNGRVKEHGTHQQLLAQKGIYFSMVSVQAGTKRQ

STRUCTURE	Emax / %
CC(=O)O[C@H]1C[C@@](C)(O)[C@]23OC(C)(C)[C@H]([C@H](OC(=O)c4ccccc4)[C@H](OC(=O)c4ccccc4)[C@]2(C)[C@H]1OC(=O)c1ccccc1)[C@H]3OC(C)=O	84.9
CCCCCCCCCCCC(=O)O[C@@H]1[C@H]2C[C@H](OC(=O)c3ccco3)[C@]3(C)[C@@H](OC(C)=O)[C@@H](OC(C)=O)C[C@@](C)(O)[C@@]13OC2(C)C	72.7
CC(=O)O[C@H]1[C@H](OC(=O)c2ccccc2)[C@@]2(C)[C@@H](OC(=O)/C=C/c3ccccc3)C[C@@H]3[C@@H](OC(C)=O)[C@]2(OC3(C)C)[C@](C)(O)[C@H]1OC(=O)c1cccnc1	100
CC(=O)O[C@H]1[C@H](OC(=O)c2ccccc2)[C@@]2(C)[C@@H](OC(=O)c3ccccc3)[C@@H](OC(=O)c3ccccc3)[C@@H]3C[C@]2(OC3(C)C)[C@](C)(O)[C@H]1OC(C)=O	98.7
CC(=O)OC[C@]12[C@H](OC(=O)c3ccccc3)[C@H](OC(=O)c3ccccc3)[C@@H]3[C@@H](OC(C)=O)[C@]1(OC3(C)C)[C@H](C)C[C@H](OC(=O)c1ccccc1)[C@@H]2OC(=O)c1ccccc1	29.3
CC(=O)O[C@H]1[C@@H](OC(=O)c2ccco2)C[C@@](C)(O)[C@]23OC(C)(C)[C@H](C[C@H](OC(=O)c4ccco4)[C@]12C)[C@H]3OC(=O)c1ccco1	80.5

Data provenance is ChEMBL document CHEMBL1148809.
